Assay: Plasma pharmacokinetic study
Format: in vivo, CD-1 mice
Conditions: male, CD-1, mouse, plasma; SC 40 mg/kg
observationType: MRT inf (h)
Numbers only, in h.

Task: May I ask what MRT inf has been recorded for CC(C)=CCOc1cc(OCCCNC(=N)N)cc2oc3cc(OCCCNC(=N)N)ccc3c(=O)c12 [XT17] ?
Result: 6.07

---

Assay: Plasma pharmacokinetic study
Type: in vivo, CD-1 mice
Details: male, CD-1, mouse, plasma; IV 5 mg/kg, 0.25 hr
observationType: concentration at 0.25 h (ng/mL)
Give bare numbers, in ng/mL.

Task: May I ask what concentration at 0.25 h has been recorded for CC(C)=CCOc1cc(OCCCNC(=N)N)cc2oc3cc(OCCCNC(=N)N)ccc3c(=O)c12 ?
Result: 7360
